B1: CPEB3 Ribozyme (parent)
chain: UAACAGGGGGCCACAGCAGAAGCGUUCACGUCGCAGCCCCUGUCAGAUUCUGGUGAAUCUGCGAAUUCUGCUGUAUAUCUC

- Variants of: B1
- experiment description: self-cleavage, relative activity (ratio to wild type); higher = more cleavage; in vitro, sequencing
Group membership follows self-cleavage per the scheme low (below 0.2), intermediate (0.2 to below 0.5), high (0.5 or more)

# count of solved cases: 5
mutation notation	category
G63A U72C	high
C11U A21G	intermediate
A18C U31C	intermediate
A47G U49G	intermediate
G52U G63A	high

Classify this variant: C59A U69A
low

Classify this variant: A47G A75U
high

Classify this variant: C62A U78A
low

Classify this variant: U25A A77G
low

Classify this variant: C37U C59A
intermediate

Classify this variant: A77U U78C
high
